Attribution: patent US11351178B2

- Protocol Details: Pharmacokinetics after single intravenous and oral administration to the mouse
- Condition Context: in vivo, po, 5.2 mg/kg
Quantity Measured: bioavailability (%)

compound="Cn1c(Sc2ccc(C(=O)NO)cc2)nnc1-c1cccs1 [comp. 10]" readout_number=25.8

* * *

# fold induction at 1 µM listing for each entry below
- System: α-tubulin acetylation in 697 cell line
- Protocol Details: In vitro α-tubulin acetylation in 697 cell line
- Type: cell-based
- Condition Context: Conc 1000 nM, 16 hours, read-out: Tubulin acetylation (ratio of acetylated tubulin and total tubulin towards control)
Quantity Measured: fold induction at 1 µM

compound=Cn1c(Sc2c(F)cc(C(=O)NO)cc2F)nnc1-c1cccc(CN2CCCCCC2)c1 study_system="α-tubulin acetylation in 697 cell line" readout_number=13
compound=O=C(NO)c1cc(F)c(Cc2nnc(-c3ccncc3)s2)c(F)c1 study_system="α-tubulin acetylation in 697 cell line" readout_number=14
compound=O=C(NO)c1cc(F)c(Cn2nnnc2-c2cccs2)c(F)c1 study_system="α-tubulin acetylation in 697 cell line" readout_number=12
compound=Cn1c(Sc2c(F)cc(C(=O)NO)cc2F)nnc1-c1ccc(CN2CCCCCC2)cc1 study_system="α-tubulin acetylation in 697 cell line" readout_number=16
compound=O=C(NO)c1cc(F)c(Cn2nnnc2-c2ncccn2)c(F)c1 study_system="α-tubulin acetylation in 697 cell line" readout_number=14
compound=O=C(NO)c1cc(F)c(Cn2nnc(-c3ccco3)n2)c(F)c1 study_system="α-tubulin acetylation in 697 cell line" readout_number=17
compound=Cn1c(Sc2c(F)cc(C(=O)NO)cc2F)nnc1-c1cccnn1 study_system="α-tubulin acetylation in 697 cell line" readout_number=14
compound="CCN(CC)Cc1ccc2cc(COC(=O)Nc3ccc(C(=O)NO)cc3)ccc2c1 [Givinostat, reference compound]" study_system="α-tubulin acetylation in 697 cell line" readout_number=18
compound=Cn1c(Sc2c(F)cc(C(=O)NO)cc2F)nnc1-c1ncccc1F study_system="α-tubulin acetylation in 697 cell line" readout_number=19
compound=Nc1ccc(-c2nnn(Cc3c(F)cc(C(=O)NO)cc3F)n2)cc1 study_system="α-tubulin acetylation in 697 cell line" readout_number=22

* * *

Quick note: these are pIC50 numbers for system: UniProt Q13547
Sequence (Q13547 whole entry): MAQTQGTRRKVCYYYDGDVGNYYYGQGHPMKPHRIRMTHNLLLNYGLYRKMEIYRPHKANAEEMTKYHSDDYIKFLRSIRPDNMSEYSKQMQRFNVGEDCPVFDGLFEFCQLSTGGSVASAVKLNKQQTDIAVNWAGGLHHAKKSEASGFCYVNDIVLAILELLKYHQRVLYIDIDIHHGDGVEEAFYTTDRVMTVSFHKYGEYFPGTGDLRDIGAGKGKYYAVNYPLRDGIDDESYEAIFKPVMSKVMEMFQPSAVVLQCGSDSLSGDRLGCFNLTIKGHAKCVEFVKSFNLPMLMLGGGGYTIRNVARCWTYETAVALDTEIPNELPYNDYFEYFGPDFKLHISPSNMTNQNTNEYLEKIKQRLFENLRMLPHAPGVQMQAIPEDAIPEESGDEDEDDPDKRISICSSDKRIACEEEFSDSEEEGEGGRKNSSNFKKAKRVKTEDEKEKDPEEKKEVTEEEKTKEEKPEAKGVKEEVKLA
pIC50: −log10 of the molar value.
Quantity Measured: pIC50

molecule="O=C(NO)c1ccc(Cn2nnc(-c3ccc(C(F)(F)F)cc3)n2)cc1 [comp. 23]" readout_number=6.21
molecule="O=C(NO)c1cc(F)c(Cn2nnc(-c3ccco3)n2)c(F)c1 [comp. 19]" readout_number=5.60
molecule="CN(C)c1cccc(-c2nnc(Sc3c(F)cc(C(=O)NO)cc3F)n2C)c1 [comp. 80]" readout_number=5.33
molecule="Cn1c(Sc2c(F)cc(C(=O)NO)cc2F)nnc1-c1cccc2ccccc12 [comp. 2]" readout_number=4.94
molecule="O=C(NO)c1cc(F)c(Cn2nnnc2-c2ccccn2)c(F)c1 [comp. 13]" readout_number=5.54
molecule="O=C(NO)c1ccc(Cn2nnc(-c3cccs3)n2)cc1 [comp. 50]" readout_number=6.60
molecule="Cn1c(Sc2ccc(C(=O)NO)cc2)nnc1-c1cccs1 [comp. 10]" readout_number=5.99
molecule="CN(C)c1cccc(-c2nnc(Sc3ccc(C(=O)NO)cc3)n2C)c1 [comp. 77]" readout_number=6.24
molecule="O=C(NO)c1cc(F)c(Cn2nnc(-c3cccs3)n2)c(F)c1 [comp. 65]" readout_number=5.62
